This collection of values is drawn from patent US12139498B1.

- system.under.test: Human M4 (Homo sapiens)
- Sequence (P08173 1-479): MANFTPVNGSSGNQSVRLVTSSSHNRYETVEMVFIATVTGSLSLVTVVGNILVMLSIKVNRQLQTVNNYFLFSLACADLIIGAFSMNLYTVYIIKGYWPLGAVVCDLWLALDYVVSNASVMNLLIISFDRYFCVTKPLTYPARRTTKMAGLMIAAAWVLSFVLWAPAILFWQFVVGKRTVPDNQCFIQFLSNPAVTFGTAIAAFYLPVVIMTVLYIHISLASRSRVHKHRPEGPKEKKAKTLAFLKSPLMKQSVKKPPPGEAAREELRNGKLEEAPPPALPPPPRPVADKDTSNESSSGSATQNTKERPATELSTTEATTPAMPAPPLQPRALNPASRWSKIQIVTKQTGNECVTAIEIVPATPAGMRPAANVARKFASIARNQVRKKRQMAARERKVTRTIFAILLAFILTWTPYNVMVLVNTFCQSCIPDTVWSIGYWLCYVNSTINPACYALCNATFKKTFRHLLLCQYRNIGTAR
- assay.summary: M4 cell-based functional assay (calcium mobilization)
- Set-up: expressed in transfected cells
- measurement.context: CHO-K1 hM4-Gqi5 cells, calcium flux, increase in EC20 acetylcholine response
pEC50: −log10 of the molar value.
measured.endpoint: pEC50

Please review the entries below; each comes with its answer.
Cc1c(C#N)nnc(N2CCc3nc(Nc4ccc(F)cc4)sc3C2)c1C ... 5.89
CCOC(=O)c1cc(=O)n2nc(N3CCc4nc(Br)sc4C3)c(C)cc2n1 ... 6.06

[1] COC1CN(C(=O)c2cc(=O)n3nc(N4CCc5nc(Br)sc5C4)c(C)cc3n2)C1
[2] Cc1nc2c(C)c(C)c(N3CCc4nc(Br)sc4C3)nn2c(=O)c1F
[3] Cc1c(C#N)nnc(N2CCc3nc(C#N)sc3C2)c1C
[4] Cc1cc2nc(C(F)F)cc(=O)n2nc1N1CCc2nc(Br)sc2C1
Request: Rank by pEC50 (largest to smallest). As an answer, provide the labels arranged in the order called for.
Result: 2, 4, 3, 1

[A] Cc1cc2nc(C(=O)NC3CC(CC(F)(F)F)C3)cc(=O)n2nc1N1CCc2nc(Br)sc2C1 (stereo not drawn)
[B] Cc1nc2c(s1)CN(c1nc3nccnc3cc1C)CC2
[C] Cc1cn2c(=O)[nH]nc2nc1N1CCc2nc(C3CCC3)sc2C1
Request: Task field, ranking: reported pEC50, descending order. Give the labels in the order requested.
Result: C, B, A
(C: 7.89, B: 6.18, A: 5.66)

###

- system.under.test: Human M4 (Homo sapiens, UniProt P08173)
- assay.summary: M4 cell-based functional assay (calcium mobilization)
- Parameters: expressed in transfected cells
- measurement.context: CHO-K1 hM4-Gqi5 cells, calcium flux, increase in EC20 acetylcholine response
pEC50: −log10 of the molar value.
measured.endpoint: pEC50

Cc1c(N2CCc3nc(C4CC4)sc3C2)nc2nn(CC3CC(F)(F)C3)c(=O)n2c1C ... 7.06
Cc1cc2nc(=O)cc(C(F)(F)F)n2nc1N1CCc2nc(Br)sc2C1 ... 6.41
Cc1cn2c(=O)n(C)nc2nc1N1CCc2nc(C3CCC3)sc2C1 ... 8.40
Cc1csc2ncnc(N3CCc4nc(Br)sc4C3)c12 ... 6.69
Cc1nc(N2CCc3nc(Br)sc3C2)c2cc(Cl)ccc2n1 ... 6.70
Cc1c(N2CCc3nc(C4CC4)sc3C2)nc2nn(C)c(=O)n2c1C ... 8.05

[A] Fc1ccc2ncnc(N3CCc4nc(Br)sc4C3)c2c1
[B] Cc1cc(C#N)cnc1N1CCc2nc(NCc3cccc(F)c3)sc2C1
[C] Cc1cc2nccnc2nc1N1CCc2nc(C3(C)CC3)sc2C1
Request: Sort by pEC50, descending. Answer format: the labels, ordered as requested.
Result: A, C, B
(A: 7.35, C: 6.60, B: 5.39)

[P] Cc1nc(N2CCc3nc(Br)sc3C2)c2cc(F)ccc2n1
[Q] Cc1cc2nc(=O)cc(C)n2nc1N1CCc2nc(Br)sc2C1
[R] Cc1cc2nc(C(=O)N3CC(C)C3)cc(=O)n2nc1N1CCc2nc(Br)sc2C1
Request: Ordering: ascending pEC50. Reply: labels, ordered per the request.
Result: R, Q, P
(R: 5.71, Q: 6.42, P: 7.10)

[a] Cc1coc2ncnc(N3CCc4nc(Br)sc4C3)c12
[b] Cc1nc(Cl)c(C)c(N2CCc3nc(Nc4ccccc4F)sc3C2)n1
Request: Could you check which of a and b has a smaller value for pEC50? Your choice should be expressed through its label.
Result: b

[I] Cc1cc(-c2nc3c(s2)CN(c2ncc(C#N)cc2C)CC3)ccn1
[II] Cc1cc2nc(C(=O)NC3(C#N)CC3)cc(=O)n2nc1N1CCc2nc(Br)sc2C1
Request: Kindly identify the item with the lower pEC50 figure among these two: I and II Bench note: the answer is the label of the chosen record.
Result: I

###

- assay.summary: Cyno intrinsic clearance
- Type: in vitro ADME
- measurement.context: cynomolgus monkey
measured.endpoint: CLint scaled (mL/min/kg)
Your answer should be a plain number; it is taken to be in mL/min/kg.

Sure, the documented CLint scaled for Cc1c(N2CCc3nc(C4(F)CC4)sc3C2)nc2nn(C)c(=O)n2c1C is 24

###

- assay.summary: Fraction unbound in cyno plasma
- Type: in vitro ADME
- measurement.context: cynomolgus monkey, read-out: Cyno Fu (plasma)
- Method: Compound 70 was tested in several in in vitro assays to investigate both metabolism and pharmacokinetics. These assays may be performed according to known methods as generally described in the following references: Conde-Ceide et al. ACS Med. Chem. Lett. 2015, 6, 716-720; Morris et al. J. Med. Chem. 2014, 57, 10192-10197; and Bubser et al. ACS Chem. Neurosci. 2014, 5, 920-942.
measured.endpoint: fraction unbound
Could you respond with only the numeric value?

Looking up Cc1c(N2CCc3nc(C4(F)CC4)sc3C2)nc2nn(C)c(=O)n2c1C , I found its fraction unbound recorded as 0.177

###

- assay.summary: In vivo pharmacokinetics in cynomolgus monkey
- measurement.context: plasma, read-out: Cyno CLp
- Procedure: Compound 70 was tested in several in vivo assays and the pharmacokinetic parameters listed in the following table may be determined from pharmacokinetic studies in rat, dog, or cynomolgus monkey, according to known methods as generally described in the following references: Garrison et al. J. Med. Chem. 2022, 65, 6273-6286; Felts et al. J. Med. Chem 2017, 60, 5072-5085; and Yu et al. J. Med. Chem. 2021, 64, 4709-4729.
measured.endpoint: clearance (mL/min/kg)
Entry rule: numbers only, all in mL/min/kg.

Kindly note the recorded clearance for Cc1c(N2CCc3nc(C4(F)CC4)sc3C2)nc2nn(C)c(=O)n2c1C [Compound 70] , which is 4.9

###

- system.under.test: Human M4 (Homo sapiens)
- Sequence (P08173 1-479): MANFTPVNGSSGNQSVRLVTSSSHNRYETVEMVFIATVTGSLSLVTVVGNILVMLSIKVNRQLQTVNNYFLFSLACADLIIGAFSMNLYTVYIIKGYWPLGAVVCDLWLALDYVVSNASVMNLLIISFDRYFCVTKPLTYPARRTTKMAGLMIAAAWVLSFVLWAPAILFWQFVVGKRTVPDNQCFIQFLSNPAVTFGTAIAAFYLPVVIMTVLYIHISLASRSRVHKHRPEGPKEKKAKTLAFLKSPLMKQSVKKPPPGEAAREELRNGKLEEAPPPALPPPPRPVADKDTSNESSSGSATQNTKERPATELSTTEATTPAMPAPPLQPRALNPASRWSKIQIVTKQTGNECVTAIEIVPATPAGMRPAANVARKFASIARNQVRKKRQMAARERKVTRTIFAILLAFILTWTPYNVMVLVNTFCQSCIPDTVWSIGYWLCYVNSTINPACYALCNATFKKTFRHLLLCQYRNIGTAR
- assay.summary: M4 cell-based functional assay (calcium mobilization)
- Set-up: expressed in transfected cells
- measurement.context: CHO-K1 hM4-Gqi5 cells, calcium flux, increase in EC20 acetylcholine response
pEC50: −log10 of the molar value.
measured.endpoint: pEC50

Worked set:
Clc1ccc2ncnc(N3CCc4nc(Br)sc4C3)c2c1 ... 6.84
Cc1cc2nccnc2nc1N1CCc2nc(C3CC3)sc2C1 ... 7.49

[a] Cc1c(N2CCc3nc(C4(C)CC4)sc3C2)nc2n[nH]c(=O)n2c1C
[b] Cc1cc2nccc(=O)n2nc1N1CCc2nc(Br)sc2C1
[c] Cc1c(N2CCc3nc(C4(F)CC4)sc3C2)nc2n[nH]c(=O)n2c1C
Request: Task field, ranking: reported pEC50, descending order. The labels, placed in the requested order, form the answer.
Result: c, a, b
